Values were extracted from the supplement of paper PMC10567573.

Readings of protein stability index for the listed variants
B1: ZNF511 (parent)
chain: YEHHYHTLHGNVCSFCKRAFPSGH

# Variants of: B1
# assay_procedure: protein stability index of a GFP-peptide fusion (GPS, HEK-293T) (PSI 1-6); higher = more stable;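 also: lentivirally expressed fusions sorted by FACS into six bins by GFP to DsRed ratio, PSI derived from sequencing read proportions per bin multiplied by bin number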
# recorded_conditions: c terminus: a fixed tail appended
measured_quantity: protein stability index

> print(dat)
    variant  test.value
 1     P21I        2.29
 2     F15D        2.48
 3      Y1H        2.81
 4      Y1E           3
 5      L8T        2.67
 6     H24V        2.25
 7     G23E        1.86
 8     K17R         2.2
 9      Y5P        3.04
10      H6T        1.94
11     G10Y        2.46
12     A19I        1.85
13     F15G        2.93
14      E2V        2.89
15      L8R         2.4
16      H9R        2.48
17      Y1I        2.89
18     H24D        2.35
19     H24M        2.17
20      Y1P        2.98
21     C16T         2.4
22     S22I        2.24
23      T7K        1.24
24     R18M        1.96
25     C16L         2.1
26      T7V        1.85
27     V12R        2.24
28     V12M        2.17
29     R18W        1.79
30      H4A        1.75
31     G10I        1.83
32      H9M        2.06
33      H6M         1.6
34     A19V        1.99
35      H6N        2.33
36     S14A        2.94
37      H9S        1.72
38      H9G        2.24
39     C16Q        2.26
40     N11P         2.6
41     K17N        2.18
42     G10E        2.39
43     F15C        3.02
44      H4C        3.26
45      Y5I        2.68
46     P21G        2.31
